These data points were gathered from PubChem BioAssay AID1159580.

Assay: chemical genetic growth profiling, strain panel (AID 1159580);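 also: tested at 20 µM; growth read once vehicle control cultures reached saturation at 30 °C; 1 = growth at the plate median or of vehicle wells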
Conditions: S. cerevisiae deletion strains, growth OD, locus YDR101C, strain arx1, hits give low values
In all, about 5,500 compounds went through this assay and about 2,000 (36%) were called active. Another 18% or so got no clear call; they are omitted. The list shows a part of the results.
Readout kind: normalized growth
In your answer, state the number alone without any accompanying words.

{"Compound": "COc1ccccc1OCC(O)CO (stereo not given)", "normalized growth": 0.972}
{"Compound": "CC(C)CC1NC(=O)CNC1=O (stereo not given)", "normalized growth": 1.01}
{"Compound": "O=C(O)c1cc(O)c2c(c1)[C@@H]([C@H]1c3cc(C(=O)O)cc(O)c3C(=O)c3c(O[C@H]4O[C@H](CO)[C@@H](O)[C@H](O)[C@H]4O)cccc31)c1cccc(O[C@H]3O[C@H](CO)[C@@H](O)[C@H](O)[C@H]3O)c1C2=O", "normalized growth": 0.98}
{"Compound": "NS(=O)(=O)c1cc2c(cc1Cl)NC(CSCc1ccccc1)=NS2(=O)=O", "normalized growth": 0.987}

Attention now turns to another entry.
Field normalized growth (entry CCCc1cc(=O)[nH]c(=S)[nH]1 ) reads 0.985

----------
Test: chemical genetic growth profiling, strain panel (AID 1159580)
Conditions: S. cerevisiae deletion strains, growth OD, locus YPL240C, strain hsp82, hits give low values
The campaign covered roughly 5,500 compounds. About 2,000 (36%) were called active. Another 18% or so got no clear call; they are omitted. The list shows a part of the results.
Classify: TRUE when normalized growth is strictly less than 1; FALSE when normalized growth is not.

For orientation, consider the following solved cases.
{"Structure notation": "COc1cc(C(C)=O)cc(OC)c1O", "Answer label": "FALSE"}
{"Structure notation": "COC(=O)c1c(C)c2c(c(C)c1O)OC(=O)c1c(C)c(Cl)c(O)c(Cl)c1O2", "Answer label": "TRUE"}

In: Threshold test, normalized growth < 1: Cc1cc(=O)[nH]c(=S)[nH]1
Out: TRUE

In: Threshold test, normalized growth < 1: Oc1c(Cl)cc(Cl)cc1Sc1cc(Cl)cc(Cl)c1O
Out: TRUE

In: Threshold test, normalized growth < 1: O=C(OCc1ccccc1)c1ccccc1
Out: TRUE

In: Threshold test, normalized growth < 1: CC(=O)Oc1cccc(O)c1
Out: FALSE

----------
Assay: chemical genetic growth profiling, strain panel (AID 1159580)
Conditions: S. cerevisiae deletion strains, growth OD, locus YPL256C, strain CLN2, hits give low values
Screen size: about 5,500 compounds; about 2,000 (36%) were called active. Roughly 18% stayed inconclusive and do not appear here. Some of the results follow.
Classify: met when normalized growth is strictly less than 1; not met when normalized growth is not.

For orientation, consider the following solved cases.
{"Compound": "CN[C@@H]1[C@H](O)[C@H](NC)[C@H]2O[C@@]3(O)C(=O)C[C@@H](C)O[C@H]3O[C@@H]2[C@H]1O", "Answer label": "met"}
{"Compound": "CCC(C)C(=O)OC1[C@@H]2CC3=C4CC(=O)O[C@@H](c5ccoc5)[C@]4(C)CCC3[C@@](C)(C2=O)[C@@H](CC(=O)OC)C1(C)C (stereo not given in full)", "Answer label": "met"}
{"Compound": "N/C(Cc1cccc2ccccc12)=N/OC(=O)c1ccc(Cl)cc1", "Answer label": "met"}
{"Compound": "CC(C)(C)NCC(O)c1ccc(O)c(CO)c1 (stereo not given)", "Answer label": "not met"}
{"Compound": "COc1cc(C/C=C/c2ccccc2)c(OC)cc1O", "Answer label": "not met"}
{"Compound": "CCOC(=O)NNc1nncc2ccccc12", "Answer label": "met"}
{"Compound": "Cc1onc(-c2c(Cl)cccc2Cl)c1C(=O)O/N=C(/N)Cc1ccc(C(C)(C)C)cc1", "Answer label": "not met"}
{"Compound": "NC(Cn1ccc(=O)c(O)c1)C(=O)O (stereo not given)", "Answer label": "not met"}

Moving on to another compound below.
In: Threshold test, normalized growth < 1: Clc1ccc(SCc2ccsc2-c2ncns2)cc1
Out: met

----------
Listing of entries alongside the reported normalized growth.
Assay: chemical genetic growth profiling, strain panel (AID 1159580)
Conditions: S. cerevisiae deletion strains, growth OD, locus YMR307W, strain GAS1, hits give low values
Hit rate of the full screen: of about 5,500 compounds, about 2,000 (36%) were called active. Roughly 18% stayed inconclusive and do not appear here. The list shows a part of the results.
In your answer, state the number alone without any accompanying words.

Answered examples (2):
{"Compound": "Nc1ccc(C(=O)O)cc1", "normalized growth": 1.05}
{"Compound": "CC(N)(C(=O)O)c1ccc(C(=O)O)cc1 (stereo not drawn)", "normalized growth": 1}

Field normalized growth (entry COC(=O)c1ccc(S(=O)(=O)N2CCC(C(N)=O)CC2)n1C ) reads 1.05

----------
Test: chemical genetic growth profiling, strain panel (AID 1159580);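 also: tested at 20 µM; growth read once vehicle control cultures reached saturation at 30 °C; 1 = growth at the plate median or of vehicle wells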
Conditions: S. cerevisiae deletion strains, growth OD, locus YLR221C, strain rsa3, hits give low values
About 2,000 (36%) of roughly 5,500 compounds were called active. Roughly 18% stayed inconclusive and do not appear here. The list shows a part of the results.
Readout kind: normalized growth
In your answer, state the number alone without any accompanying words.

{"Molecule": "CC(=O)O[C@H]1CCC2(C)C3=C(CCC2C1(C)C)[C@]1(C)CCC(C(C)CCC=C(C)C)[C@@]1(C)CC3 (some centres undefined)", "Quantitative readout": 0.98}
{"Molecule": "CC(C)=CCCC(C)[C@@H]1CC[C@]2(C)C3=C(CC[C@@]12C)C1(C)CC[C@H](O)C(C)(C)C1CC3 (some centres undefined)", "Quantitative readout": 1.06}
{"Molecule": "CC(C)CCCC(C)C1CCC2C3CC(=O)[C@H]4C[C@@H](O)CC[C@]4(C)C3CC[C@]12C (some centres undefined)", "Quantitative readout": 0.991}

Attention now turns to another entry.
Field normalized growth (entry CC(C)CCCC(C)[C@H]1CCC2C3CC=C4CC(=O)CC[C@]4(C)C3CC[C@@]21C (some centres undefined) ) reads 0.949

----------
Experiment: chemical genetic growth profiling, strain panel (AID 1159580);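 also: tested at 20 µM; growth read once vehicle control cultures reached saturation at 30 °C; 1 = growth at the plate median or of vehicle wells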
Conditions: S. cerevisiae deletion strains, growth OD, locus YDR318W, strain mcm21, hits give low values
Out of some 5,500 compounds screened, about 2,000 (36%) were called active. Not shown: some 18% with an inconclusive outcome. Some of the results follow.
Readout kind: normalized growth
In your answer, state the number alone without any accompanying words.

Field normalized growth (entry C=C1c2c(Cl)ccc(O)c2C(O)=C2C(=O)[C@]3(O)C(O)=C(C(N)=O)C(=O)[C@@H](N(C)C)[C@@H]3[C@@H](O)[C@H]12 ) reads 0.947

Field normalized growth (entry C=C1c2cccc(O)c2C(O)=C2C(=O)[C@]3(O)C(O)=C(C(N)=O)C(=O)[C@@H](N(C)C)[C@@H]3[C@@H](O)[C@H]12 ) reads 0.975

Field normalized growth (entry C[C@H]1c2cccc(O)c2C(O)=C2C(=O)[C@]3(O)C(O)=C(C(N)=O)C(=O)[C@@H](N(C)C)[C@@H]3[C@@H](O)[C@@H]21 ) reads 0.961

Field normalized growth (entry O=C(O)c1cc(O)c2c(c1)[C@@H]([C@H]1c3cc(C(=O)O)cc(O)c3C(=O)c3c(O[C@H]4O[C@H](CO)[C@@H](O)[C@H](O)[C@H]4O)cccc31)c1cccc(O[C@H]3O[C@H](CO)[C@@H](O)[C@H](O)[C@H]3O)c1C2=O ) reads 1.01

Field normalized growth (entry CCC(C)[C@H]1O[C@]2(C=C[C@@H]1C)C[C@@H]1C[C@@H](C/C=C(\C)[C@@H](OC3C[C@H](OC)C(O[C@H]4C[C@H](OC)[C@@H](O)[C@H](C)O4)[C@H](C)O3)[C@@H](C)/C=C/C=C3\CO[C@@H]4[C@H](O)C(C)=C[C@@H](C(=O)O1)[C@]34O)O2 (stereo not given in full) ) reads 0.853

----------
Test: chemical genetic growth profiling, strain panel (AID 1159580);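 also: tested at 20 µM; growth read once vehicle control cultures reached saturation at 30 °C; 1 = growth at the plate median or of vehicle wells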
Settings: S. cerevisiae deletion strains, growth OD, locus YFR019W, strain FAB1
About 2,000 (36%) of roughly 5,500 compounds were called active. Not shown: some 18% with an inconclusive outcome. No stated cut-off is given here; in the data, active means normalized growth mostly below about 0.91 (no sharp cut-off); inconclusive means no clear call, values can overlap the other calls; inactive means mostly above about 0.92. Some of the results follow.
Give one outcome, nothing more. List: active, inactive

For orientation, consider the following solved cases.
{"Structure notation": "CC(C)(C)c1cc(C(=O)NNc2cccc(Cl)c2)n(Cc2ccccc2)n1", "Answer label": "inactive"}
{"Structure notation": "CC(=O)c1ccc(Cl)c(N=Cc2cc(Cl)cc(Cl)c2O)c1", "Answer label": "active"}
{"Structure notation": "O=C(NOC(=O)c1ccccc1)c1ccccc1", "Answer label": "active"}
{"Structure notation": "Cc1onc(-c2c(F)cccc2Cl)c1/C(N)=N\\OC(=O)c1ccc(C(C)(C)C)cc1", "Answer label": "inactive"}
{"Structure notation": "Cc1c(C)c(C)c(C(=O)c2ccc(N=Cc3cc(Cl)cc(Cl)c3O)cc2)c(C)c1C", "Answer label": "active"}

In: # fetch the recorded call for COc1c(Br)csc1C(=O)O/N=C(/N)c1cc(C(F)(F)F)cc(C(F)(F)F)c1 here
Out: inactive

In: # fetch the recorded call for Cc1ccc(-n2cccc2)c(NS(=O)(=O)c2ccc(-c3ccno3)s2)c1 here
Out: inactive

In: # fetch the recorded call for CCOC(=O)c1ccc(Cl)c(N=Cc2cc(Cl)cc(Cl)c2O)c1 here
Out: active

In: # fetch the recorded call for Clc1ccc(CN2CCN(c3cccc4[nH]ccc34)CC2)cc1Cl here
Out: inactive

In: # fetch the recorded call for Cc1onc(-c2c(Cl)cccc2Cl)c1C(=O)O/N=C(/N)Cc1ccc(C(C)(C)C)cc1 here
Out: inactive
